Parameter GI50, tested on MDA-MB-435, listed per item.

compound: NS(=O)(=O)c1cccc(Nc2nc(SCC(=O)c3ccc(F)cc3)nc3ccccc23)c1
GI50: 14.2 µM

Supply GI50 value. Item: `Cn1ncc2c(N)nc(Oc3ccccc3-c3ccccc3)nc21` 1.99 µM

Identify measured GI50 associated with CCOC(=O)C(Cc1ccccc1)N1C(=O)/C(=C/N2N=C(c3ccc(OC)cc3)CC2c2ccc3ccccc3c2)SC1=S (centres undefined) 3.57 µM

Tell me its GI50 given `N#Cc1c(NC(=O)c2ccc(C(F)(F)F)c(Cl)c2)sc2c1CCC(=O)C2` as the entry. 1.6 µM
